pKi: −log10 of the molar value.
Collected from the literature: pKi of various compounds toward Cathepsin B (Homo sapiens).

query-smiles: CCCC[C@H](NC(=O)O[C@H](Cn1ccc(-c2ccc(C(F)(F)F)cc2)n1)C(C)(C)C)C(=O)C(=O)Nc1ccn[nH]1
pKi: 7.00 to 9.00

query-smiles: CCCC[C@H](NC(=O)O[C@H](c1nnc(-c2ccc(C(F)(F)F)cc2)o1)C(C)(C)C)C(=O)C(=O)NN1CCOC1=O
pKi: 7.00 to 9.00

query-smiles: CCCC[C@H](NC(=O)OC1(c2nc3ccccc3s2)CCCC1)C(=O)C(=O)Nc1ccn[nH]1
pKi: < 6.00

query-smiles: O=C(N[C@H]1COCC1=O)O[C@@H](CC1CCCCC1)C(=O)N1CCOCC1
pKi: < 4.00

query-smiles: N#CCNC(=O)[C@H](Cc1cc(I)c(O)c(I)c1)N[C@@H](c1ccc(Br)cc1)C(F)(F)F
pKi: 8.46

query-smiles: COc1cccc(C(=O)N[C@@H](CC2CCCCC2)C(=O)N[C@@H](CN2CCOCC2)CN2CCc3cc(F)ccc32)c1
pKi: < 5.00

query-smiles: CCCC[C@H](NC(=O)O[C@H](Cn1cnc(-c2ccc(C(F)(F)F)cc2)c1)C(C)(C)C)C(=O)C(=O)Nc1ccnn1C1CCC1
pKi: 5.00 to 7.00

###

Ok so here's the combined literature set: Ki for Cathepsin B (Homo sapiens, UniProt P07858).
readout-type: Ki

query-smiles: N#CC1(NC(=O)[C@H](CC(F)(F)c2ccccc2)N[C@@H](c2ccc(F)cc2)C(F)(F)F)CC1
measured-value: > 5 µM

query-smiles: COc1cccc(C(=O)N[C@@H](CCC2CCCCC2)C(=O)N[C@H](CN2CCc3cc(F)ccc32)c2ccccc2)c1
measured-value: > 10 µM

query-smiles: CC[C@H](NC(=O)[C@H](Cc1cc(I)c(O)c(I)c1)N[C@@H](c1ccc(Br)cc1)C(F)(F)F)C(=O)C(=O)NC1CC1
measured-value: 0.00128 µM

###

pKi: −log10 of the molar value.
Recorded pKi for molecules tested on Cathepsin B (Homo sapiens, UniProt P07858), drawn from a number of studies.

molecule: Cc1nsc(N[C@@H](CC(C)C)C(=O)N2CCC[C@H]2C(=O)O)n1
pKi: 3.35
//
molecule: CCC[C@H](NC(=O)O[C@@H](CC1CCCCC1)C(=O)N1CCOCC1)C(=O)c1nc2ccc(F)cc2o1
pKi: 5.01
//
molecule: C[C@H](NC(=O)O[C@@H](CS(=O)(=O)Cc1ccccc1)C(=O)N1CCOCC1)C(=O)c1nc2ccccc2o1
pKi: < 4.00
//
molecule: COc1ccc(N2CCC[C@H](NC(=O)[C@H](CC(C)C)NC(=O)c3cccc(C)c3)C2)cc1 (single isomer, unassigned)
pKi: < 5.00
//
molecule: N#CC1(NC(=O)[C@H](CC(F)(F)Cc2ccccc2)N[C@@H](c2ccc(F)cc2)C(F)(F)F)CC1
pKi: 6.30 to 7.68
//
molecule: CCCC[C@H](NC(=O)O[C@H](c1nnc(-c2ccc(C(F)(F)F)cc2)o1)C(C)(C)C)C(=O)C(=O)Nc1ccn[nH]1
pKi: 7.00 to 9.00
//
molecule: O=C(NC(CCC1CCCCC1)C(=O)NC(COCc1ccccc1)CN1CCc2cc(F)ccc21)c1cc2ccccc2[nH]1 (mixture of isomers)
pKi: > 6.00
//
molecule: O=C(N[C@H](C(=O)c1nc2ccc(F)cc2o1)C1CC1)O[C@@H](CC1CCCCC1)C(=O)N1CCOCC1
pKi: < 4.52
//
molecule: C[C@@H](CNc1cccc(C(N)=O)c1)NC(=O)[C@H](CC(C)(C)C)NC(=O)c1ccc(-c2cccc(F)c2)o1
pKi: < 5.00
//
molecule: CCC[C@H](NC(=O)O[C@@H](CC1CCCCC1)C(=O)N1CCCC1)C(=O)c1nc2ccccc2o1
pKi: 5.24
//
molecule: O=C(N[C@H](C(=O)N[C@@H](COCc1ccccc1)CN1CCc2cc(F)ccc21)c1ccc(Cl)cc1Cl)c1ccc(F)c(F)c1
pKi: < 5.00
//
molecule: CCC(F)(F)C[C@H](N[C@@H](c1ccc(F)cc1)C(F)(F)F)C(=O)NC1(C#N)CC1
pKi: 6.30 to 7.68
//
molecule: CCCC[C@H](NC(=O)O[C@H](Cn1cnc2cc(Cl)c(Cl)cc21)C(C)(C)C)C(=O)C(=O)Nc1ccn[nH]1
pKi: 7.00 to 9.00
//
molecule: CC[C@H](NC(=O)O[C@@H](CC1CCCCC1)C(=O)N1CCOCC1)C(=O)c1nc2cc(Cl)ccc2o1
pKi: 5.73
